In what follows, each item is paired with its IC50 for Cytochrome P450 2C19 (Homo sapiens, UniProt P33261).
Numeric answer only, unit µM assumed.

> print(dat)
                                   molecule  units  endpoint.value
1  CON=C1CCC(CN2CCN(c3nc(=O)c4cc(C(F)(F)F)cc([N+](=O)[O-])c4s3)CC2)CC1 (stereo not drawn)     µM             7.8

-- ask Reported IC50, molecule O=c1nc(N2CCN(CC3CCCCC3)CC2)sc2c([N+](=O)[O-])cc(C(F)(F)F)cc12 : ____
-- reply 3.77

====

Quick reference for IC50 among some molecules
Biological target: CYP2D6 (Homo sapiens)
Sequence (P10635 whole entry): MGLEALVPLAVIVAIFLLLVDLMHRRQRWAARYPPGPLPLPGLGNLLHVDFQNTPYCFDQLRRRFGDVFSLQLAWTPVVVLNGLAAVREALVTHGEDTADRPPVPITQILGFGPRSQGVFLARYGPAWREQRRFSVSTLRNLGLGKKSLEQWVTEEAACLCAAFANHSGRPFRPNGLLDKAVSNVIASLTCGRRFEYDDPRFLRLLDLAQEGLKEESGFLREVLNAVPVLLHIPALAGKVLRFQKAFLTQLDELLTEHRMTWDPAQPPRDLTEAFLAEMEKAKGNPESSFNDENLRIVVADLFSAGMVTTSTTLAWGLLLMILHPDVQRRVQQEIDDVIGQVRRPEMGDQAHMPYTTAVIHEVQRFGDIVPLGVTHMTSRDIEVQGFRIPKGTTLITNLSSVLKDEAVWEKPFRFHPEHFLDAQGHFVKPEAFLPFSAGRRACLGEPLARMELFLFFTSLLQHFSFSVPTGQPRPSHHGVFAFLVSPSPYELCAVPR
Assay: Inhibition of CYP2D6 (unknown origin)
Assay type: ADME

> print(dat)
                                   molecule    experimental.target  endpoint.value
1  CCON=C1CCC(CN2CCN(c3nc(=O)c4cc(C(F)(F)F)cc([N+](=O)[O-])c4s3)CC2)CC1 (configuration not stated)  CYP2D6 (Homo sapiens)         > 10 µM

Let us move to another entry and its IC50.
-- ask For the molecule CON=C1CCC(CN2CCN(c3nc(=O)c4cc(C(F)(F)F)cc([N+](=O)[O-])c4s3)CC2)CC1 (configuration not stated) , what IC50 is on record?
-- reply > 10 µM

====

Biological target: Cytochrome P450 3A4 (Homo sapiens)
Sequence (P08684 whole entry): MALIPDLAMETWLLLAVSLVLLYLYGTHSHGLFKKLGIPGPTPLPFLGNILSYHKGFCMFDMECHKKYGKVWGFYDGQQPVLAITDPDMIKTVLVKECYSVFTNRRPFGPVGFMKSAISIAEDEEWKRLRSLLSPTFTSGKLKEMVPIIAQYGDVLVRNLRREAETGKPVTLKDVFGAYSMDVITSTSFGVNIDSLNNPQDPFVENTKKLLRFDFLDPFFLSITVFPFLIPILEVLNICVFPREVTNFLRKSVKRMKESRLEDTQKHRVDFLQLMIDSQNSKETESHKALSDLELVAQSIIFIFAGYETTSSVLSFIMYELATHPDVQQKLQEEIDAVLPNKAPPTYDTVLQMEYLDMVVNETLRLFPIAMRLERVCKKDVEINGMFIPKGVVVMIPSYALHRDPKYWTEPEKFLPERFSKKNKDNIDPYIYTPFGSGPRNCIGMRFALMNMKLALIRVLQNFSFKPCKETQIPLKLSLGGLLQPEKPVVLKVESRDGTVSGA
MEASURE: IC50

-- ask Record request: IC50 value, item O=c1nc(N2CCN(CC3CCCCC3)CC2)sc2c([N+](=O)[O-])cc(C(F)(F)F)cc12
-- reply > 10 µM

====

Each entry below carries its reported AUC(0-inf).
Experiment: AUC (0 to infinity) in ICR mouse at 25 mg/kg, po measured upto 24 hrs by HPLC analysis
Type: ADME, organism-based
Design: dose 25 mg/kg, time infinity, route oral
Details: in vivo
Returns: string containing the number followed by the unit.

> print(dat)
                                   compound     measure  endpoint.value
1  CCON=C1CCC(CN2CCN(c3nc(=O)c4cc(C(F)(F)F)cc([N+](=O)[O-])c4s3)CC2)CC1 (stereo not drawn)  AUC(0-inf)   40600 ng·h/mL
2  CON=C1CCC(CN2CCN(c3nc(=O)c4cc(C(F)(F)F)cc([N+](=O)[O-])c4s3)CC2)CC1 (stereo not drawn)  AUC(0-inf)   27500 ng·h/mL

-- ask Any idea what its AUC(0-inf) is? The compound is O=c1nc(N2CCN(CC3CCCCC3)CC2)sc2c([N+](=O)[O-])cc(C(F)(F)F)cc12
-- reply 1660 ng·h/mL

====

Experiment: Tmax in Sprague-Dawley rat at 200 mg/kg, po measured upto 24 hrs by HPLC analysis
Type: ADME, organism-based
Conditions: in vivo
MEASURE: Tmax
Don't forget the unit after the number, please.

-- ask State the recorded Tmax for this entry: O=c1nc(N2CCN(CC3CCCCC3)CC2)sc2c([N+](=O)[O-])cc(C(F)(F)F)cc12
-- reply 2.5 h

-- ask Thanks! And CON=C1CCC(CN2CCN(c3nc(=O)c4cc(C(F)(F)F)cc([N+](=O)[O-])c4s3)CC2)CC1 (configuration not stated) ?
-- reply 2.83 h
